Each recorded value in this set is attributed to the supplement of paper PMC12042874.

# test_name: amyloid nucleation score (Sup35N fusion, yeast selection) (log enrichment); library NNK1; higher = more nucleation; inactive = no reads after selection;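 further: zero at mode of non-aggregating sequences after 7 days selection at 30°C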
Provide the reported amyloid nucleation score of each item.
Answers are plain numbers.

These solved cases illustrate the format of a correct answer.
> print(dat)
              substance        parameter.measured  recorded.value
1  GCRMWFAWQVGVILMVDMFI  amyloid nucleation score           0.307
2         WWDAEFGGKSRAS  amyloid nucleation score          -0.012
3  NKWLRCARGTVHWYAAIVGH  amyloid nucleation score          -0.942

List the reported amyloid nucleation score of each substance below.
1. GVMACDMCCPNKRVSEPRAS
2. VLFLDI
3. IGPLYRFCMLNMRFGAGSLN
4. RVYYLMDLIACCPYSLGHRN

[-0.278, 0.793, 0.428, 8.61]

List the reported amyloid nucleation score of each substance below.
1. WNGLYRFCVVRAQGSFDET
2. LQTGRYDWKVDPINSSMESV
3. RFSKNE
4. SISNPRSLLYVSRSYNSDEF
5. DSLLWVMKYSMVSFYMCDYR
6. IFVYCEFNKNRIPALASWVG
7. SHVVCVCLRDLPRIFVFVEK
8. KDRWTCSFVAVCMRYLFAKS

-0.111
0.26
0.523
-0.956
-0.668
0.93
6.63
0.134

---

# test_name: amyloid nucleation score (Sup35N fusion, yeast selection) (log enrichment); library NNK1; higher = more nucleation; inactive = no reads after selection
Category key, based on recorded amyloid nucleation score: bin A = under -0.04, bin B = from -0.04 up to 1, bin C = 1 and over

> print(dat)
       ordered.residues  class.assignment
1  YVGSRSAVNIGIICGSRLNE             bin A
2  RKFSNLVGRYALFICLKSLT             bin A
3  RSEGRRGRFNMWSLAFGDVP             bin A
4          TIIPLHIRAIYA             bin B
5             FRKEMIFYS             bin C

Which class is correct for the following sequence? `LHKIHNAIDILS`
bin B

Please give the result for `YVRMACMLGLHSRYWMHRVV` too.
bin A

Please give the result for `SVMGVSWFLFLDYGDSINFR` too.
bin B

Please give the result for `GRMHKLVNCRAFTGLYKGIY` too.
bin A

Please give the result for `VRLKVKCIMIH` too.
bin B

---

Provide the reported amyloid nucleation score of each item.
# test_name: amyloid nucleation score (Sup35N fusion, yeast selection) (log enrichment); library NNK2; higher = more nucleation; inactive = no reads after selection
One number for each entry.

> print(dat)
       ordered.residues        parameter.measured  recorded.value
1  HRRVVAPNKCWMSLACFWDL  amyloid nucleation score            4.33

List the reported amyloid nucleation score of each sequence below.
1. SYYYEGGPCWIEDLHGNVYV
2. LVPGYWYMWVTGNVKRVFCD
3. SSSLLRSHRVGYVNLVVRED
4. SLKRKGLVHTPCIFRVRCLT
5. YRVYLQRHSGA
6. YMLMMALFQRC
7. WVTGPSRPD
8. HAGMIYILYVNLRRTSKRMG

[0.183, -1.54, -0.524, 0.554, 3.78, 2.75, 0.387, 3.86]
